- Experiment: protein stability index of a GFP-peptide fusion (GPS, HEK-293T) (PSI 1-6); higher = more stable;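 further: 24-mer peptide tiles fused after GFP, lentivirally expressed, FACS-sorted into six equal bins by GFP/DsRed ratio, decoded by Illumina sequencing, PSI is the read-weighted mean bin number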
- Test Parameters: treatment: DMSO; c terminus: a fixed tail appended
Everything with protein stability index lower than 3 is criterion not met; everything else, including exactly 3, is criterion met.

The following sequences have reported results that may help.
In: Is the recorded value of protein stability index equal to or greater than 3 for this sequence? SDFKTDKEGGQAGSGQRVPALEEA [ELOA2]
Out: criterion met

In: Dear colleague, could you confirm whether LFGGEFEDSVFEERPERRSGPPAS [C8orf76] has protein stability index at or above 3?
Out: criterion met

In: Check if protein stability index >= 3 (inclusive). Item: INHGAEVTCKDKKGYTPLHAAASN [ANKRD44]
Out: criterion met

In: Form field: protein stability index at least 3? Entry: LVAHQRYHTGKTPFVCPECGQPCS [ZNF649]
Out: criterion met

In: Does TIEGTSDDLTVVDAASLRRQIIKL [MFF] have a reported protein stability index of at least 3?
Out: criterion met

---
In: Evaluate SLPETFGDFWRMIWEQRSATVVMM [PTPRD] : protein stability index at minimum 3?
Out: criterion not met

In: In plain terms: is recorded protein stability index at least 3 for PNTYYEGGYFKARLKFPIDYPYSP [CDC34] ?
Out: criterion not met

In: Is protein stability index for QTLQAMDSEDFPQAAKQIKDGVTM [FSD1] at or above 3?
Out: criterion met

---

The entries below are paired with their reported protein stability index.
- Experiment: protein stability index of a GFP-peptide fusion (GPS, HEK-293T) (PSI 1-6); higher = more stable
- Test Parameters: treatment: DMSO; c terminus: a fixed tail appended
// keep it numeric: no unit symbol after the value

Below are worked cases with known answers.
In: Which protein stability index value belongs to LSQVELQAAPGALPVSSPEPPPAL [TRIM55] ?
Out: 4.79

In: // protein stability index lookup, key: LMRTCERLVKEGRFVPSNPIGILT [PPTC7]
Out: 2.65

In: What value of protein stability index has been reported for the following sequence? TLRLEKLGHPALSQEEGKSALEDQ [PPFIA4]
Out: 5.38

In: Request the reported protein stability index associated with RVQSVDFMRTDPVCQKLLLDAMNY [KLHL14]
Out: 2.74

More entries:
In: Would you kindly share the measured protein stability index for SYPNPNEDKCPGNYTNPLKVQTVI [TMEM192] ?
Out: 3.17

In: Would you mind telling me what protein stability index value was observed for GREYPDAQGFAADVRLMFSNCYKY [BRD3] ?
Out: 2.38

---

- Experiment: protein stability index of a GFP-peptide fusion (GPS, HEK-293T) (PSI 1-6); higher = more stable
- Test Parameters: treatment: MLN4924 1 uM, 8 h; c terminus: a fixed tail appended
Readout Type: protein stability index
Write no unit; give the number alone.

In: Name the recorded protein stability index for NTNTLKVPECRLAEDLGNLWENTR [SPOPL] .
Out: 3.41

Next:
In: Data request, read-out protein stability index, for QSLYQEVFGRLRDENGRPYSPSQY [NFE2L1]
Out: 3.4

In: Record request: protein stability index value, item FFFRHGHRGLLTMQLKSPMPSSTT [SPAG8]
Out: 2
